- experiment: Partition coefficient (logP)
- Type: physicochemical
- condition_parameters: octanol/water
Quick rule for you: logP at 3 or higher means yes (1), lower means no (0).

In [3]: df
Out[3]:
                                   compound  answer_label
0  O=S(=O)(c1cc(C(F)(F)F)ccc1Cl)N1CCN(c2ccccn2)CC1       yes (1)
1     O=S(=O)(c1cc(C(F)(F)F)ccc1F)N1CCCCCC1       yes (1)
2             NS(=O)(=O)c1cc(C(F)(F)F)ccc1F        no (0)
3  O=[N+]([O-])c1cc(C(F)(F)F)cc([N+](=O)[O-])c1Cl [CHLORALIN]       yes (1)
4           CNS(=O)(=O)c1cc(C(F)(F)F)ccc1Cl        no (0)
5    CCN(CC)CCNS(=O)(=O)c1cc(C(F)(F)F)ccc1F       yes (1)

====

- Test system: Leishmania donovani
- experiment: In vitro inhibition of Leishmania donovani parasite
- Format: functional, organism-based
quantity: IC50 (µM)

>>> df
                             smiles_notation  quantity  quantity_unit  limit_sign  value_measured
 0           CNS(=O)(=O)c1cc(C(F)(F)F)ccc1Cl      IC50             µM           >             450
 1      O=S(=O)(c1cc(C(F)(F)F)ccc1F)N1CCCCC1      IC50             µM           =             418
 2            CNS(=O)(=O)c1cc(C(F)(F)F)ccc1F      IC50             µM           >             450
 3             NS(=O)(=O)c1cc(C(F)(F)F)ccc1F      IC50             µM           >             450
 4  CN1CCN(S(=O)(=O)c2cc(C(F)(F)F)ccc2Cl)CC1      IC50             µM           =             321
 5    CCN(CC)CCNS(=O)(=O)c1cc(C(F)(F)F)ccc1F      IC50             µM           >             450
 6   CCN(CC)CCNS(=O)(=O)c1cc(C(F)(F)F)ccc1Cl      IC50             µM           >             450
 7    O=S(=O)(c1cc(C(F)(F)F)ccc1Cl)N1CCCCCC1      IC50             µM           =              56
 8  O=S(=O)(c1cc(C(F)(F)F)ccc1N1CCCC1)N1CCCC1      IC50             µM           =              23
 9      O=S(=O)(c1cc(C(F)(F)F)ccc1Cl)N1CCCC1      IC50             µM           =             115
10   CN1CCN(S(=O)(=O)c2cc(C(F)(F)F)ccc2F)CC1      IC50             µM           =             199
11            NS(=O)(=O)c1cc(C(F)(F)F)ccc1Cl      IC50             µM           >             450

The reported measurements were obtained from ChEMBL document CHEMBL1131410.
